Test: total protein half-life in vivo (active degradation + dilution); higher = more stable protein
Settings: wild type E. coli NCM3722; growth: N-lim chemostat; doubling time 6 h
Property: total protein half-life in vivo; scope: individual sequences

sequence_record	total protein half-life in vivo / h
MSIKTIKYFSTIIVAVVAVLAGWWLWNYYMQSPWTRDGKIRAEQVSITPQVSGRIVELNIKDNQLVNAGDLLLTIDKTPFQIAELNAQAQLAKAQSDLAKANNEANRRRHLSQNFISAEELDTANLNVKAMQASVDAAQATLKQAQWQLAQTEIRAPVSGWVTNLTTRIGDYADTGKPLFALVDSHSFYVIGYFEETKLRHIREGAPAQITLYSDNKTLQGHVSSIGRAIYDQSVESDSSLIPDVKPNVPWVRLAQRVPVRFALDKVPGDVTLVSGTTCSIAVGQ	6.09
MVKVYAPASSANMSVGFDVLGAAVTPVDGALLGDVVTVEAAETFSLNNLGRFADKLPSEPRENIVYQCWERFCQELGKQIPVAMTLEKNMPIGSGLGSSACSVVAALMAMNEHCGKPLNDTRLLALMGELEGRISGSIHYDNVAPCFLGGMQLMIEENDIISQQVPGFDEWLWVLAYPGIKVSTAEARAILPAQYRRQDCIAHGRHLAGFIHACYSRQPELAAKLMKDVIAEPYRERLLPGFRQARQAVAEIGAVASGISGSGPTLFALCDKPETAQRVADWLGKNYLQNQEGFVHICRLDTAGARVLEN	4.31
MKIFLENLYHSDCYFLPIRDNQQVLVGVELITHFSSEDGTVRIPTSRVIAQLTEEQHWQLFSEQLELLKSCQHFFIQHKLFAWLNLTPQVATLLLERDNYAGELLKYPFIELLINENYPHLNEGKDNRGLLSLSQVYPLVLGNLGAGNSTMKAVFDGLFTRVMLDKSFIQQQITHRSFEPFIRAIQAQISPCCNCIIAGGIDTAEILAQITPFDFHALQGCLWPAVPINQITTLVQR	4.22
